FYI, the data here is from patent US12497394B2.

Quick list: inhibition at 0.01 µM per entry.
# target system: receptor tyrosine kinase AXL (Homo sapiens, UniProt P30530)
# Construct: 50 μL of AXL kinase domain recombinant protein diluted in reaction buffer was added to start the reaction; made in house; host or cells: insect cells (baculovirus expression system)
# experimental protocol: Enzyme activity of receptor tyrosine kinase AXL (ELISA)
# Type: biochemical
# run parameters: 10 nM; read-out: AXL activity Inhibitory rate(%)
API: value field is a number in %; no unit string.

>>> df
                                   molecule  value_unit  measurement
0  COCCOc1cc2ncnc(Oc3ccc(NC(=O)c4c5n(n(-c6ccccc6)c4=O)CCCC5)cc3C(F)(F)F)c2cc1OCCOC           %         52.1
1  Cc1nccc(Oc2ccc(NC(=O)c3c4n(n(-c5ccccc5)c3=O)CCCC4)cc2)n1 [DC621005, reference compound]           %        -14.6
2  COCCOc1cc2ncnc(Oc3ccc(NC(=O)c4c5n(n(-c6cc(F)ccc6F)c4=O)CCCC5)cc3F)c2cc1OCCOC           %         72.5
3  O=C(Nc1ccc(Oc2ncnc3cc4c(cc23)OCCOCCOCCO4)c(F)c1)c1c2n(n(-c3ccc(F)cc3)c1=O)CCCC2           %         54.5
4  COCCOc1cc2ncnc(Oc3ccc(NC(=O)c4c5n(n(-c6ccccc6F)c4=O)CCCC5)c(F)c3)c2cc1OCCOC           %         55.1
5  COCCOc1cc2ncnc(Oc3ccc(NC(=O)c4c5n(n(-c6ccc(F)cc6)c4=O)CCCC5)cc3Cl)c2cc1OCCOC           %         59.2

Lab request: please report inhibition at 0.01 µM under test system receptor tyrosine kinase AXL (Homo sapiens, UniProt P30530) for `O=C(Nc1ccc(Oc2ncnc3cc4c(cc23)OCCOCCOCCO4)c(F)c1)c1c2n(n(-c3ccccc3)c1=O)CCCC2`
66.7

Lab request: please report inhibition at 0.01 µM under test system receptor tyrosine kinase AXL (Homo sapiens, UniProt P30530) for `COCCOc1cc2ncnc(Oc3ccc(NC(=O)c4c5n(n(-c6ccccc6)c4=O)CCCC5)c(F)c3)c2cc1OCCOC`
54.2

Lab request: please report inhibition at 0.01 µM under test system receptor tyrosine kinase AXL (Homo sapiens, UniProt P30530) for `O=C(Nc1ccc(Oc2ncnc3cc4c(cc23)OCCOCCOCCO4)c(Cl)c1)c1c2n(n(-c3ccc(F)cc3)c1=O)CCCC2`
55.1

Lab request: please report inhibition at 0.01 µM under test system receptor tyrosine kinase AXL (Homo sapiens, UniProt P30530) for `O=C(Nc1ccc(Oc2ncnc3cc4c(cc23)OCCOCCOCCO4)c(Cl)c1)c1c2n(n(-c3ccccc3)c1=O)CCCC2`
43

Lab request: please report inhibition at 0.01 µM under test system receptor tyrosine kinase AXL (Homo sapiens, UniProt P30530) for COc1nc(OC)nc(Oc2ccc(NC(=O)c3c4n(n(-c5ccccc5)c3=O)CCCC4)cc2)n1 [DC621003, reference compound]
-15.5

Lab request: please report inhibition at 0.01 µM under test system receptor tyrosine kinase AXL (Homo sapiens, UniProt P30530) for `COc1cc2ncnc(Oc3ccc(NC(=O)c4c5n(n(-c6cc(F)ccc6F)c4=O)CCCC5)cc3C(F)(F)F)c2cc1OC`
34.9

Lab request: please report inhibition at 0.01 µM under test system receptor tyrosine kinase AXL (Homo sapiens, UniProt P30530) for `COCCOc1cc2ncnc(Oc3ccc(NC(=O)c4c5n(n(-c6ccccc6)c4=O)CCCC5)cc3Cl)c2cc1OCCOC`
60.5

Lab request: please report inhibition at 0.01 µM under test system receptor tyrosine kinase AXL (Homo sapiens, UniProt P30530) for `COCCOc1cc2ncnc(Oc3ccc(NC(=O)c4c5n(n(-c6ccccc6F)c4=O)CCCC5)cc3Cl)c2cc1OCCOC`
62.9

====

Quick list: inhibition at 0.01 µM per entry.
# target system: receptor tyrosine kinase c-Met (Homo sapiens)
# Sequence (P08581 25-1390): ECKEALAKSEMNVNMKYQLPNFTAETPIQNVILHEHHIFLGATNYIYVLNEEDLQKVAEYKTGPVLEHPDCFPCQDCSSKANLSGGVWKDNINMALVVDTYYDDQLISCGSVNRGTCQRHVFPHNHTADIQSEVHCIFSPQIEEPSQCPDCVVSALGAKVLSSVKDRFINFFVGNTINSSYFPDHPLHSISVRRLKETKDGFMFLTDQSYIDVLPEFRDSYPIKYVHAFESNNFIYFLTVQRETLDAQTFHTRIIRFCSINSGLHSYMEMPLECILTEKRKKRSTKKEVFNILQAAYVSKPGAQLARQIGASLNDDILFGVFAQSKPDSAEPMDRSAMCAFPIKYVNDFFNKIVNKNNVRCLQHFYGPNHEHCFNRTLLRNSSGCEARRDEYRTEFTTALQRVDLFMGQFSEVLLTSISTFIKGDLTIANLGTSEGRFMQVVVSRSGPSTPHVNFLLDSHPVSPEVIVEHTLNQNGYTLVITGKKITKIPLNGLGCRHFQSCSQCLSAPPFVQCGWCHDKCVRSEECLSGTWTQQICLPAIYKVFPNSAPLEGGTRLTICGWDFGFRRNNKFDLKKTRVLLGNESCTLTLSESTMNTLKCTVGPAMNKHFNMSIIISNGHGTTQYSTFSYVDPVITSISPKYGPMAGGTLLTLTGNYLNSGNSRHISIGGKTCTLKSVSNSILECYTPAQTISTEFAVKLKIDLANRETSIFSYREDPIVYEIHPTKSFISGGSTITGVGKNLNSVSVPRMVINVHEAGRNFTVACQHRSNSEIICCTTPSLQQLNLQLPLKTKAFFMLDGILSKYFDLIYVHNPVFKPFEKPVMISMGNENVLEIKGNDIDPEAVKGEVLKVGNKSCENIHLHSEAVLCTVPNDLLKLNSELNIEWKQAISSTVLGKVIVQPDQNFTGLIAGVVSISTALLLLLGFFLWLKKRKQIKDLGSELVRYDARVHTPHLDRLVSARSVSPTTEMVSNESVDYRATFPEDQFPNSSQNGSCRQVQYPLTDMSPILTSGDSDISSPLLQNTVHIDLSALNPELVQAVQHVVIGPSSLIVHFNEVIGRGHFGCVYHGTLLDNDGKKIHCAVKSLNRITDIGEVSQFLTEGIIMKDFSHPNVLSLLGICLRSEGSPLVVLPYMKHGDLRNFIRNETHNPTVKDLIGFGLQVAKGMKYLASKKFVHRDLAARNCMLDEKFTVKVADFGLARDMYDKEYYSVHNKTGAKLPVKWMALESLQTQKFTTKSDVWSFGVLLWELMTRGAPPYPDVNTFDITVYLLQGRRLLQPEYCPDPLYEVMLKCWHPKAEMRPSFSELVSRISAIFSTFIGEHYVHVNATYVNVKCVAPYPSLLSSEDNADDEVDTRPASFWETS
# experimental protocol: In vitro c-Met kinase inhibitory activity
# Format: biochemical
# run parameters: 10 nM; two values per compound; read-out: c-Met Inhibitory rate (%)
# From the text: Experimental Example 3: Study of In Vitro c-Met Kinase Inhibitory Activity Since the screening results of 369 kinase profiles of compound DC621044 has shown that the compound has a certain inhibitory activity on c-Met. We further screened some compounds for their inhibitory activity on c-Met kinase.
API: value field is a number in %; no unit string.

>>> df
                         structure_notation  measurement
0  COc1cc2ncnc(Oc3ccc(NC(=O)c4c5n(n(-c6ccccc6)c4=O)CCCC5)cc3F)c2cc1OC         74.4
1  COc1cc2ncnc(Oc3ccc(NC(=O)c4c5n(n(-c6cc(F)ccc6F)c4=O)CCCC5)cc3)c2cc1OC         41.7
2  O=C(Nc1ccc(Oc2ncnc3[nH]cc(-c4ccccc4)c23)c(F)c1)c1c2n(n(-c3ccccc3F)c1=O)CCCC2         54.6

# input compound: `O=C(Nc1ccc(Oc2ncnc3[nH]cc(-c4ccccc4)c23)c(F)c1)c1c2n(n(-c3cc(F)ccc3F)c1=O)CCCC2` ; wanted: its inhibition at 0.01 µM
68.2

# input compound: `O=C(Nc1ccc(Oc2ncnc3cc4c(cc23)OCCOCCOCCO4)c(F)c1)c1c2n(n(-c3cc(F)ccc3F)c1=O)CCCC2` ; wanted: its inhibition at 0.01 µM
46.4

# input compound: `COc1cc2ncnc(Oc3ccc(NC(=O)c4c5n(n(-c6cc(F)ccc6F)c4=O)CCCC5)cc3F)c2cc1OC` ; wanted: its inhibition at 0.01 µM
80.9

# input compound: `COCCOc1cc2ncnc(Oc3ccc(NC(=O)c4c5n(n(-c6cc(F)ccc6F)c4=O)CCCC5)cc3F)c2cc1OCCOC` ; wanted: its inhibition at 0.01 µM
66.8

====

# target system: receptor tyrosine kinase AXL (Homo sapiens, UniProt P30530)
# Construct: 50 μL of AXL kinase domain recombinant protein diluted in reaction buffer was added to start the reaction; made in house; host or cells: insect cells (baculovirus expression system)
# Sequence (P30530 536-807 limits assumed): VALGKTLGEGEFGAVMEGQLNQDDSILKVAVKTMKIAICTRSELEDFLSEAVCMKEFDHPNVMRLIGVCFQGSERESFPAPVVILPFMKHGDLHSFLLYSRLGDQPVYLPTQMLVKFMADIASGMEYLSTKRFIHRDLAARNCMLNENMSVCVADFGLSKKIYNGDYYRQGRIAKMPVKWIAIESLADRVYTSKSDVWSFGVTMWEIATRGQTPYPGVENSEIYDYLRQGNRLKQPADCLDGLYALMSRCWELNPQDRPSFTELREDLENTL
# experimental protocol: Enzyme activity of receptor tyrosine kinase AXL (ELISA)
# Format: biochemical
# run parameters: 10 nM; read-out: AXL activity Inhibitory rate(%)
Quick list: inhibition at 0.01 µM per entry.
API: value field is a number in %; no unit string.

# input molecule: `COCCOc1cc2ncnc(Oc3ccc(NC(=O)c4c5n(n(-c6ccccc6F)c4=O)CCCC5)cc3C(F)(F)F)c2cc1OCCOC` ; wanted: its inhibition at 0.01 µM
61

# input molecule: `COCCOc1cc2ncnc(Oc3ccc(NC(=O)c4c5n(n(-c6cc(F)ccc6F)c4=O)CCCC5)cc3Cl)c2cc1OCCOC` ; wanted: its inhibition at 0.01 µM
76.4

# input molecule: `O=C(Nc1ccc(Oc2ncnc3cc4c(cc23)OCCOCCOCCO4)c(Cl)c1)c1c2n(n(-c3cc(F)ccc3F)c1=O)CCCC2` ; wanted: its inhibition at 0.01 µM
47.4

# input molecule: `COCCOc1cc2ncnc(Oc3ccc(NC(=O)c4c5n(n(-c6ccc(F)cc6)c4=O)CCCC5)cc3F)c2cc1OCCOC` ; wanted: its inhibition at 0.01 µM
61.2

====

# target system: UniProtKB P08581
# experimental protocol: In vitro c-Met kinase inhibitory activity
# Assay type: biochemical
# run parameters: 1 nM; two values per compound; read-out: c-Met Inhibitory rate (%)
Quick list: inhibition at 0.001 µM per entry.

>>> print(df.to_string())
                                   molecule     target_system  measurement
0  COCCOc1cc2ncnc(Oc3ccc(NC(=O)c4c5n(n(-c6cc(F)ccc6F)c4=O)CCCC5)cc3F)c2cc1OCCOC [DC621024]  UniProtKB P08581        40.5%
1  COCCOc1cc2ncnc(Oc3ccc(NC(=O)c4c5n(n(-c6ccccc6)c4=O)CCCC5)cc3C(F)(F)F)c2cc1OCCOC [DC621072]  UniProtKB P08581        24.1%
2  O=C(Nc1ccc(Oc2ncnc3[nH]cc(-c4ccccc4)c23)c(F)c1)c1c2n(n(-c3ccccc3)c1=O)CCCC2 [DC621052]  UniProtKB P08581        32.7%
3  COCCOc1cc2ncnc(Oc3ccc(NC(=O)c4c5n(n(-c6ccccc6)c4=O)CCCC5)c(F)c3)c2cc1OCCOC [DC621051]  UniProtKB P08581        39.5%
4  COc1cc2ncnc(Oc3ccc(NC(=O)c4c5n(n(-c6cc(F)ccc6F)c4=O)CCCC5)cc3)c2cc1OC [DC621022]  UniProtKB P08581        35.4%

# input molecule: COCCOc1cc2ncnc(Oc3ccc(NC(=O)c4c5n(n(-c6cc(F)ccc6F)c4=O)CCCC5)c(F)c3)c2cc1OCCOC [DC621054] ; wanted: its inhibition at 0.001 µM
61.1%

# input molecule: COCCOc1cc2ncnc(Oc3ccc(NC(=O)c4c5n(n(-c6ccc(F)cc6)c4=O)CCCC5)cc3C(F)(F)F)c2cc1OCCOC [DC621102] ; wanted: its inhibition at 0.001 µM
25.6%

# input molecule: COc1cc2ncnc(Oc3ccc(NC(=O)c4c5n(n(-c6cc(F)ccc6F)c4=O)CCCC5)cc3F)c2cc1OC [DC621023] ; wanted: its inhibition at 0.001 µM
58.9%

# input molecule: O=C(Nc1ccc(Oc2ncnc3cc4c(cc23)OCCOCCOCCO4)c(F)c1)c1c2n(n(-c3cc(F)ccc3F)c1=O)CCCC2 [DC621063] ; wanted: its inhibition at 0.001 µM
17.7%

# input molecule: COc1cc2ncnc(Oc3ccc(NC(=O)c4c5n(n(-c6ccc(F)cc6)c4=O)CCCC5)cc3C(F)(F)F)c2cc1OC [DC621101] ; wanted: its inhibition at 0.001 µM
27.2%

# input molecule: O=C(Nc1ccc(Oc2ncnc3cc4c(cc23)OCCOCCOCCO4)c(Cl)c1)c1c2n(n(-c3ccc(F)cc3)c1=O)CCCC2 [DC621068] ; wanted: its inhibition at 0.001 µM
34%

# input molecule: COCCOc1cc2ncnc(Oc3ccc(NC(=O)c4c5n(n(-c6ccccc6F)c4=O)CCCC5)c(F)c3)c2cc1OCCOC [DC621057] ; wanted: its inhibition at 0.001 µM
34%

# input molecule: COCCOc1cc2ncnc(Oc3ccc(NC(=O)c4c5n(n(-c6ccccc6F)c4=O)CCCC5)cc3C(F)(F)F)c2cc1OCCOC [DC621092] ; wanted: its inhibition at 0.001 µM
25.3%
